In this section we review reported growth inhibition values for a set of compounds.
# experiment-description: NCI Yeast Anticancer Drug Screen. Data for the rad50 strain (AID 155);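 note: 0% = growth of vehicle-only cultures of the same strain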
# study-conditions: S. cerevisiae rad50 strain growth inhibition; at 11.0 µM; hits give high values
About 79,000 compounds went through this panel and 15% of them were active in at least one assay; those are over-represented in the sample as a whole.
assay-endpoint: growth inhibition (%)

COC(=O)C1(C)CCc2c(ccc3ccccc23)C1=O (stereo not drawn) : 13
COC1=C(N)C(=O)c2nc(-c3nc(C(=O)O)c(C)c(-c4ccc(OC)c(OC)c4O)c3N)ccc2C1=O : 97
CN(C)N=Nc1ccccc1C(=O)NC#N : 97
O=c1[nH]c2ccc(Cl)cc2o1 : -17
O=C1C=C(N2CCN(c3ccccn3)CC2)C(=O)c2c(O)ccc(O)c21 : 0
CN(C)c1nc(=Nc2cccc(Cl)c2)ss1 : 89
COC(=O)Oc1cc(Cl)c(Cl)cc1Cl : -1
O=C1C(Br)=C(c2ccccc2)O/C1=C/C(=O)c1ccc(Br)cc1 : 11
CC(=O)Nc1ccc2c(c1)-c1ccccc1C2=O : 20
O=C(c1ccc([N+](=O)[O-])cc1)C1N=NCC1c1ccccc1 (stereo not drawn) : 5
C(=Nc1ccc(-c2cc(-c3ccccc3)nc3ccc4ccccc4c23)cc1)c1ccccc1 : 42
CN(C)CCNC(=O)c1cccc2c1Oc1c(cccc1[N+](=O)[O-])O2 : 24
O=C(O)c1ccc(N2C(=O)C=CC2=O)cc1 : 14
c1ccc(Cc2cc(-c3ccccc3)n[nH]2)cc1 : 7
CCCCCCCCCCCCNC(C)=O : 2
Cc1cc(S(=O)(=O)Nc2nnc3cnc4ccccc4n23)c(S)cc1Cl : 2
COc1cc2cc3c4cc(OC)c(OC)cc4cc[n+]3c(C)c2cc1OC : 3
Cc1ccc(NC(=O)/C(CC2N=c3c(ccc4c(O)c5ccccc5c(O)c34)=NC2O)=N/NC(C)(C)C)cc1 (stereo not drawn) : 30
